test system: C33A; experiment: Primary qHTS to identify gynecologic anti-cancer compounds using libraries of approved drugs and bioactive compounds (AID 1345084); conditions: Gynecologic cancer cell panel viability, ATPlite luminescence, 48 h; series mostly up to 57.5 µM; also: % is scaled to controls: 0 for no effect and ±100 for the full control effect; nearly all actives have a fitted effect of over 55% in size
Results filed as inconclusive are left out. Calls of active or inactive are those of the source. Calls follow the shape of the dose curve; as a rule, active = well fitted cell-killing curve with a large enough effect; inconclusive = small, poorly fitted or top-dose-only effect, or effect the other way; inactive = flat fitted curve, though single readings scatter.
property label: activity change, negative = cytotoxicity

INSERT INTO assay_data (compound, property_label, recorded_value) VALUES
  ('CC1(C(=O)O)CCCC2(C)C3CCC4CC3(CCC12)CC4C(=O)O (stereo not drawn)', 'activity change, negative = cytotoxicity', 'inactive'),
  ('CC(C)=CC1C[C@](C)(O)[C@@H]2[C@H]3CCC4[C@@]5(C)CC[C@H](O[C@@H]6OC[C@H](O)[C@H](O[C@@H]7O[C@H](CO[C@@H]8O[C@H](CO)[C@@H](O)[C@H](O)[C@H]8O)[C@@H](O)[C@H](O)[C@H]7O)[C@H]6O[C@@H]6O[C@@H](C)[C@H](O)[C@@H](O)[C@H]6O)C(C)(C)[C@@H]5CC[C@@]4(C)[C@@]34CO[C@@]2(C4)O1 (stereo partly drawn)', 'activity change, negative = cytotoxicity', '25.2% [at 11.6 µM] (inactive)'),
  ('O=C(/C=C/c1ccc(O)c(O)c1)O[C@@H]1[C@@H](O)[C@H](OC2CCCCC2O)O[C@H](CO)[C@H]1O (stereo partly drawn)', 'activity change, negative = cytotoxicity', 'inactive');

* * *

test system: SKOV3; test: Primary qHTS to identify gynecologic anti-cancer compounds using libraries of approved drugs and bioactive compounds (AID 1345084); conditions: Gynecologic cancer cell panel viability, ATPlite luminescence, 48 h; series mostly up to 57.5 µM; also: % is scaled to controls: 0 for no effect and ±100 for the full control effect; nearly all actives have a fitted effect of over 55% in size
Results filed as inconclusive are left out. Activity calls are given as the source filed them. Calls follow the shape of the dose curve; as a rule, active = well fitted cell-killing curve with a large enough effect; inconclusive = small, poorly fitted or top-dose-only effect, or effect the other way; inactive = flat fitted curve, though single readings scatter.
property label: activity change, negative = cytotoxicity

See these solved cases before continuing.
INSERT INTO results (compound, recorded_value) VALUES
  ('C[C@@H]1O[C@@H](O[C@@H]2[C@@H](O)[C@H](O[C@H]3[C@H](O[C@H]4CC[C@@]5(C)C(CC[C@]6(C)C5CC=C5[C@@H]7CC(C)(C)CC[C@]7(C(=O)O[C@@H]7O[C@H](CO)[C@@H](O)[C@H](O)[C@H]7O)CC[C@]56C)C4(C)C)O[C@H](C(=O)O)[C@@H](O)[C@@H]3O)OC[C@H]2O)[C@H](O)[C@H](O)[C@H]1O (stereo not given in full)', '20.4% [at 11.6 µM] (inactive)'),
  ('COc1c2ccoc2nc2c(OC)c(O[C@@H]3O[C@@H](C)[C@H](O)[C@@H](O[C@@H]4O[C@H](CO)[C@@H](O)[C@H](O)[C@H]4O)[C@H]3OC(C)=O)ccc12', 'inactive'),
  ('O=C(N[C@H](Cc1ccccc1)C(=O)O)c1sc2cc(F)ccc2c1Cl', 'inactive'),
  ('CC1=C2CC(O)(C(C)(C)O)C(O[C@@H]3O[C@H](CO)[C@@H](O)[C@H](O)[C@H]3O)CC(C)C2CC1=O (stereo not given in full)', 'inactive');

# input for lookup
input: Look up activity change, negative = cytotoxicity for this compound: COc1cc(C)c(C(=O)OC2C(C)OC(OC3CCC(C)C4C3C=C(C)C3/C(C)=C\CC/C(C)=C/C5(C)C=C(C(=O)O)C(C)CC56OC(=O)/C(=C(\O)C34C)C6=O)C(O)C2O)c(OC)c1 (stereo not given)
output: -6.42% [at 11.6 µM] (inactive)
